tested on: Human immunodeficiency virus 1; assay: Antiviral activity against HIV1 NL4-3.Luc in human MDM assessed as infectivity treated for 24 hrs by luciferase assay; assay type: functional, organism-based; conditions: Human immunodeficiency virus 1, 24 h
measured_attribute: EC50 (nM)

molecule: Cc1ccnc2c1NC(=O)c1cccnc1N2C1CC1 [NEVIRAPINE]
target_of_assay: Human immunodeficiency virus 1
result_value: 27

molecule: COc1cc2c(cc1Cc1cccc(Cl)c1F)c(=O)c(C(=O)O)cn2[C@H](CO)C(C)C [ELVITEGRAVIR]
target_of_assay: Human immunodeficiency virus 1
result_value: 0.5

molecule: Cc1nnc(C(=O)NC(C)(C)c2nc(C(=O)NCc3ccc(F)cc3)c(O)c(=O)n2C)o1 [RALTEGRAVIR]
target_of_assay: Human immunodeficiency virus 1
result_value: 4.3

molecule: CC(C)OC(=O)OCOP(=O)(CO[C@H](C)Cn1cnc2c(N)ncnc21)OCOC(=O)OC(C)C.O=C(O)/C=C/C(=O)O [TENOFOVIR DISOPROXIL FUMARATE]
target_of_assay: Human immunodeficiency virus 1
result_value: 28

src = ChEMBL document CHEMBL1687834
